This collection of values is drawn from the supplement of paper PMC12042874.

Measurement Description: amyloid nucleation score (Sup35N fusion, yeast selection) (log enrichment); library NNK2; higher = more nucleation; inactive = no reads after selection;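 further: zero at mode of non-aggregating sequences after 7 days selection at 30°C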
Cut-off -0.01 on amyloid nucleation score, inclusive. At or above means TRUE; below means FALSE.

# check: amyloid nucleation score of `CCLENTRVLTVLVSLSMV` is greater than or equal to -0.01
TRUE

Decide: is the reported value of amyloid nucleation score for `FTWCRWVFWRNCYNDMEEDA` equal to or greater than -0.01?
FALSE

amyloid nucleation score >= -0.01 for `MLNNRLNPLFARESGELLGA` ?
TRUE

Please tell me: is the substance `TYPNKADPLFRS` at or over -0.01 in terms of amyloid nucleation score?
TRUE

Please check the record `MLNSVLAQAMRH` and state if its amyloid nucleation score is at or above -0.01.
TRUE

Does the substance `LLEYNIFLRSIVFDGREEWA` have recorded amyloid nucleation score that is -0.01 or more?
TRUE

Reported amyloid nucleation score reaches at least -0.01 for `RNEQMSPCITWVNYPDYLRT` ?
TRUE

Does the reported amyloid nucleation score for `NGRETEFQFTRVDVWNFSVM` fall at or above the -0.01 mark?
TRUE

Please check the record `GSVRTDVLSPRFGGTGHLVN` and state if its amyloid nucleation score is at or above -0.01.
FALSE

Say whether `HSMSYFDYAIRLDRVGDVIS` shows amyloid nucleation score of -0.01 or more.
TRUE

Please tell me: is the substance `VIYFHHVTYSIYPLL` at or over -0.01 in terms of amyloid nucleation score?
TRUE

In plain terms: is recorded amyloid nucleation score at least -0.01 for `PFSRLNPRDPLWVEMFVCWQ` ?
TRUE

Does the reported amyloid nucleation score for `VSASFEFRFSSGKWACLWRG` fall at or above the -0.01 mark?
TRUE

Please tell me: is the substance `KTREFNEQIVYGASVYVYQG` at or over -0.01 in terms of amyloid nucleation score?
TRUE

Evaluate `RLYHPSQWGDLILCIFVMEA` : amyloid nucleation score at minimum -0.01?
FALSE

Please check the record `ASLLGQKSAVGILRIHSKLY` and state if its amyloid nucleation score is at or above -0.01.
FALSE

Tell me whether amyloid nucleation score is at least -0.01 here: `LFSLTGIKLE`
FALSE

Item `HKRFKEGLSG` with amyloid nucleation score of -0.01 or above?
TRUE

Please check the record `GQDITDTFTLNCSRGFTCIR` and state if its amyloid nucleation score is at or above -0.01.
TRUE

# bool: amyloid nucleation score of `EELSIQRALLVCPKKEGFLE` >= -0.01
TRUE

Check the entry `PIGRSCIYHKWE` : does amyloid nucleation score equal or exceed -0.01?
TRUE

Hi team, for `TAKHDYFLSEESRRLYSSKY` , is the recorded amyloid nucleation score at or above -0.01?
TRUE

In plain terms: is recorded amyloid nucleation score at least -0.01 for `HARHRGVCFWCVADSAPVYH` ?
FALSE

Evaluate `PFRGYFGVLSYAVFGEAGPV` : amyloid nucleation score at minimum -0.01?
TRUE

Please tell me: is the substance `KLSWRIRA` at or over -0.01 in terms of amyloid nucleation score?
TRUE

Answer whether amyloid nucleation score of `MDIFRYVCNCYKSSNKKVFG` is greater than or equal to -0.01.
FALSE

Hello, I need to know if `LSVCLAKPTCDVSF` has measured amyloid nucleation score not below -0.01. Thanks!
TRUE

Please indicate if the recorded amyloid nucleation score for `ALFMDPFAVTLMRGL` meets or exceeds -0.01.
TRUE

Hello, I need to know if `LYYTCDIHTGRWWVLLVHGV` has measured amyloid nucleation score not below -0.01. Thanks!
TRUE

// inclusive: amyloid nucleation score at least -0.01? input: `ESTLDC`
TRUE

Does amyloid nucleation score meet or surpass -0.01 for `AVSYVDILAFGLMFQKSLGK` ?
TRUE

Has `VTYLGACVYRCCEMSLVFRF` a recorded amyloid nucleation score greater than or equal to -0.01?
FALSE

Is amyloid nucleation score at least -0.01? Consider `TSGWNAERMFEHINGQFVFL`
FALSE

Exam item: decide whether the reported amyloid nucleation score for `EHVGVTTVPIPLGMGLTWWC` is at least -0.01.
TRUE

Please tell me: is the substance `SCLLWAF` at or over -0.01 in terms of amyloid nucleation score?
FALSE

// inclusive: amyloid nucleation score at least -0.01? input: `CGSRQAA`
TRUE

Tell me whether amyloid nucleation score is at least -0.01 here: `RSSSRASALTRYLSELGKKS`
TRUE

Answer whether amyloid nucleation score of `EEWNRRANMGFLNYFETHGG` is greater than or equal to -0.01.
FALSE

Does the reported amyloid nucleation score for `DVKSYTITYSLSFHVMSVII` fall at or above the -0.01 mark?
TRUE

Please indicate if the recorded amyloid nucleation score for `VDMGGDPWMVNRCELSLRLW` meets or exceeds -0.01.
TRUE

Is the recorded value of amyloid nucleation score equal to or greater than -0.01 for this substance? `IPNYLSYTWILYNYTFLGAC`
TRUE

Could you verify whether the entry `HYFRIAIL` shows amyloid nucleation score of no less than -0.01?
FALSE

Does `ILANCGCCSNFSFYQMGEKY` have a reported amyloid nucleation score of at least -0.01?
TRUE

Does amyloid nucleation score meet or surpass -0.01 for `TVFLIDTYTYDTVFNTSRCR` ?
TRUE

For this substance, is measured amyloid nucleation score -0.01 or higher? `DSGFGSW`
FALSE

Given the entry `FYESKMGVMINFNWFYDTTS` , answer whether its amyloid nucleation score meets or surpasses -0.01.
TRUE

Dear colleague, could you confirm whether `DRWLVFPSNRPVFVMDRFNG` has amyloid nucleation score at or above -0.01?
FALSE

Can `GDVCNVLLAYWVFVTLSFSV` be said to have amyloid nucleation score at or above -0.01?
TRUE

Dear colleague, could you confirm whether `FNDSPSYWFSHYIAARSSVE` has amyloid nucleation score at or above -0.01?
FALSE

# check: amyloid nucleation score of `SPLHRDCGNQLTE` is greater than or equal to -0.01
TRUE

Hi team, for `GAWFQTYWLWCEYMAFIQKL` , is the recorded amyloid nucleation score at or above -0.01?
TRUE

Would you say `CVTRMDYTDVSDMHLM` shows amyloid nucleation score at minimum -0.01?
TRUE

Decide: amyloid nucleation score of `FYYNCGWSCNNVTWFSRQFV` >= -0.01?
TRUE

Item `QCFSLGGWVCFVIDVC` with amyloid nucleation score of -0.01 or above?
TRUE

Can `SLGSSWCNSDLLAL` be said to have amyloid nucleation score at or above -0.01?
FALSE

Does the substance `RYISPSQSAQVSGHLRNVQL` have recorded amyloid nucleation score that is -0.01 or more?
TRUE

Test whether the substance `PTGGRLYSV` records amyloid nucleation score of -0.01 or higher.
TRUE

For this substance, is measured amyloid nucleation score -0.01 or higher? `VITVTPGGHVPWVLASNGNI`
FALSE

Does the reported amyloid nucleation score for `VVTHYLQIYPRFSMHFFVSV` fall at or above the -0.01 mark?
TRUE

Does `WLAICVARWSETYCMFVWTT` have a reported amyloid nucleation score of at least -0.01?
FALSE

Determine whether this substance has amyloid nucleation score no lower than -0.01: `IFNVRRVLHFIIYVSDIPLD`
FALSE

In plain terms: is recorded amyloid nucleation score at least -0.01 for `IQSNAQESHNSNICESYNND` ?
FALSE

Entry `FFGTMV` : is its amyloid nucleation score no less than -0.01?
FALSE

Is amyloid nucleation score at least -0.01? Consider `GISLGDNIRFYLDCTAAPGA`
FALSE
